System: pigweed (Amaranthus retroflexus)
protocol.text: Test A greenhouse herbicide test, pre- and postemergence
Type: in vivo
study.conditions: Postemergence, 500 g ai/ha; visual rating after approx. 10 d, 0 to 100 scale (0 no effect, 100 complete control)
property.measured: Plant response rating, Pigweed
Hey, just send me the number, nothing else.

Known Plant response rating, Pigweed results, listed for orientation:
Qu. With pigweed (Amaranthus retroflexus) as the test system, provide measured Plant response rating, Pigweed for this compound: `Cc1nn(C)c(=O)c(-c2ccc(Cl)c3ccccc23)c1OC(=O)C(F)(F)F`
Ans. 80

Qu. With pigweed (Amaranthus retroflexus) as the test system, provide measured Plant response rating, Pigweed for this compound: `COC(=O)Oc1cnn(C)c(=O)c1-c1c(C)sc2ccccc12`
Ans. 100

Qu. With pigweed (Amaranthus retroflexus) as the test system, provide measured Plant response rating, Pigweed for this compound: `CC(=O)Oc1cnn(C)c(=O)c1-c1c(C)sc2ccccc12`
Ans. 50

Qu. With pigweed (Amaranthus retroflexus) as the test system, provide measured Plant response rating, Pigweed for this compound: `COC(=O)Oc1c(OC)nn(C)c(=O)c1-c1c(C)ccc2ccccc12`
Ans. 100

Qu. With pigweed (Amaranthus retroflexus) as the test system, provide measured Plant response rating, Pigweed for this compound: `Cc1nn(C)c(=O)c(-c2cccc3ccc(Br)cc23)c1O`
Ans. 100

Qu. With pigweed (Amaranthus retroflexus) as the test system, provide measured Plant response rating, Pigweed for this compound: `Cc1ccc2ccccc2c1-c1c(OS(C)(=O)=O)cnn(C)c1=O`
Ans. 50

Others:
Qu. With pigweed (Amaranthus retroflexus) as the test system, provide measured Plant response rating, Pigweed for this compound: `COc1nn(C)c(=O)c(-c2c(C)sc3ccc(Cl)cc23)c1OC(C)=O`
Ans. 70

Qu. With pigweed (Amaranthus retroflexus) as the test system, provide measured Plant response rating, Pigweed for this compound: `Cc1nn(C)c(=O)c(-c2ccc(Cl)c3ccccc23)c1O`
Ans. 100

Qu. With pigweed (Amaranthus retroflexus) as the test system, provide measured Plant response rating, Pigweed for this compound: `CCOC(=O)Oc1c(C)nn(C)c(=O)c1-c1c([N+](=O)[O-])ccc2ccccc12`
Ans. 80

Qu. With pigweed (Amaranthus retroflexus) as the test system, provide measured Plant response rating, Pigweed for this compound: `Cc1nn(C)c(=O)c(-c2c([N+](=O)[O-])ccc3ccccc23)c1OC(=O)C1CC1`
Ans. 80
